List of pIC50 values.
molecular target: human IDO1 in HEK 293 cells (Homo sapiens, UniProt P14902); assay: Cell-based assay of IDO1 activity
Would you please state pIC50, meaning minus log10 of the concentration in mol/L, as a bare number?

compound: CC(C)=CC[C@@H](O)C1=CC(=O)c2c(O)ccc(O)c2C1=O [Compound 7, shikonin]
study system: human IDO1 in HEK 293 cells (Homo sapiens, UniProt P14902)
pIC50: 5.66

Now let's try a different one.
Ask: GET /values?readout=pIC50&item= Cc1cccc2c3c(ccc12)C1=C(C(=O)C3=O)[C@@H](C)CO1 [Compound 8, dihydrotanshinone I]
Reply: 4.59

###

molecular target: recombinant human IDO1 (rhIDO1) (Homo sapiens); test: Enzymatic assay of IDO1
outcome measure: IC50
Record the result as a number with its unit.

compound: CC(C)=CC[C@@H](O)C1=CC(=O)c2c(O)ccc(O)c2C1=O [Compound 7, shikonin]
IC50: 0.98 µM

We next turn to a different compound, shown below.
Ask: Request body: readout IC50, system recombinant human IDO1 (rhIDO1) (Homo sapiens), query Cc1cccc2c3c(ccc12)C1=C(C(=O)C3=O)[C@@H](C)CO1 [Compound 8, dihydrotanshinone I] . Return the value.
Reply: 2.8 µM

###

biological target: IDO1 (Homo sapiens)
Sequence (P14902 whole entry): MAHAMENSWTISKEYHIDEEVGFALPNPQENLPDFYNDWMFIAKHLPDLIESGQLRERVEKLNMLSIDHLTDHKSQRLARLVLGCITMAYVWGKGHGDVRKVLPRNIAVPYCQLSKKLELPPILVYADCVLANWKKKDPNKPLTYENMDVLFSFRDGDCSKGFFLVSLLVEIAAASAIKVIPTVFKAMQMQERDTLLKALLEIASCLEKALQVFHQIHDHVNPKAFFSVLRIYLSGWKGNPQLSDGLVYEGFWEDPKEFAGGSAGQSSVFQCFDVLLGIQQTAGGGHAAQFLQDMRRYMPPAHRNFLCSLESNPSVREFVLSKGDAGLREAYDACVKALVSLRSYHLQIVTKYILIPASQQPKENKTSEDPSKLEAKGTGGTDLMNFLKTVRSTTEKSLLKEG
outcome measure: Ki (nM)
Just the number please, in nM, no unit attached.

molecule: CC(C)=CC[C@@H](O)C1=CC(=O)c2c(O)ccc(O)c2C1=O [Compound 7, shikonin]
outcome measure: Ki
data value: 1400

Could you now look at the following molecule, please?
Ask: Would you kindly share the measured Ki for Cc1cccc2c3c(ccc12)C1=C(C(=O)C3=O)[C@@H](C)CO1 [Compound 8, dihydrotanshinone I] ?
Reply: 2800

###

molecular target: rhTDO2 (purified TDO2 enzyme) (Homo sapiens)
outcome measure: IC50 (µM)
# value in µM; strip the unit string

compound: CC(C)=CC[C@@H](O)C1=CC(=O)c2c(O)ccc(O)c2C1=O
IC50, µM: 5.05

Ask: IC50 for Cc1cccc2c3c(ccc12)C1=C(C(=O)C3=O)[C@@H](C)CO1 [Compound 8, dihydrotanshinone I] ?
Reply: 5.1
